So I've got a bunch of compounds here, and I need their pEC50 values.
- SYSTEM NAME: Human GPR120 (Homo sapiens, UniProt Q5NUL3)
- Sequence (Q5NUL3 1-361): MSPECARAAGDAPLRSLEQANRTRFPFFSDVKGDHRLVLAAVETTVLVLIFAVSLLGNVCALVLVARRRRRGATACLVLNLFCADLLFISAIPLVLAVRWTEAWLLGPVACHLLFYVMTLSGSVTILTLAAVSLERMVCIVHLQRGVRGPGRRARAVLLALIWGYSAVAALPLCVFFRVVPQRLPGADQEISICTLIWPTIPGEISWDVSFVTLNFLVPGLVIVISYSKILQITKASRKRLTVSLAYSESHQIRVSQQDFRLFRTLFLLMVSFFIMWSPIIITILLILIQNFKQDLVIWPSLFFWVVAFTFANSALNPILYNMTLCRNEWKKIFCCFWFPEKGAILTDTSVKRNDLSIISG
- METHOD DESCRIPTION: Human GPR120 Calcium (FLIPR)
- Assay type: cell-based
- RECORDED CONDITIONS: Supplementary Table 1
pEC50: −log10 of the molar value.

The reported pEC50 of the compound COc1ccc(C(=O)N(CC(C)(C)C)c2cccc(C)n2)c(N2CCC(c3cc4ccc([C@@H](CC(=O)O)C5CC5)cc4o3)CC2)c1 [compound 1] was < 4.30

Please fill in: pEC50 reported for Cc1cc(OCCCS(C)(=O)=O)cc(C)c1-c1cccc(COc2ccc3c(c2)OC[C@H]3CC(=O)O)c1 [TAK-875] = < 4.30

# pEC50 of COc1ccc(F)c(-c2ccc(COc3cccc([C@@H](CC(=O)O)C4CC4)c3)cc2C2=CCCC2(C)C)c1 [AM-1638] = 5.54

The compound listed as CC#C[C@@H](CC(=O)O)c1ccc(OCc2ccc(CN3CCC4(C=Cc5ccccc54)CC3)cc2)cc1 [LY2881835] shows pEC50 equal to < 4.30

====

- SYSTEM NAME: human PPARalpha (Homo sapiens, UniProt Q07869)
READOUT TYPE: Ki

Recorded Ki (compound "COc1ccc(F)c(-c2ccc(COc3cccc([C@@H](CC(=O)O)C4CC4)c3)cc2C2=CCCC2(C)C)c1" ): 3.17 µM

Reported Ki ( "CC#C[C@@H](CC(=O)O)c1ccc(OCc2ccc(CN3CCC4(C=Cc5ccccc54)CC3)cc2)cc1" ) = > 10 µM

The measured Ki associated with "COc1ccc(C(=O)N(CC(C)(C)C)c2cccc(C)n2)c(N2CCC(c3cc4ccc([C@@H](CC(=O)O)C5CC5)cc4o3)CC2)c1" reads > 10 µM

Value of measured Ki for the entry "Cc1cc(OCCCS(C)(=O)=O)cc(C)c1-c1cccc(COc2ccc3c(c2)OC[C@H]3CC(=O)O)c1" : > 10 µM

====

- SYSTEM NAME: hRORalpha (Homo sapiens, UniProt P35398)
- Sequence (P35398 1-523): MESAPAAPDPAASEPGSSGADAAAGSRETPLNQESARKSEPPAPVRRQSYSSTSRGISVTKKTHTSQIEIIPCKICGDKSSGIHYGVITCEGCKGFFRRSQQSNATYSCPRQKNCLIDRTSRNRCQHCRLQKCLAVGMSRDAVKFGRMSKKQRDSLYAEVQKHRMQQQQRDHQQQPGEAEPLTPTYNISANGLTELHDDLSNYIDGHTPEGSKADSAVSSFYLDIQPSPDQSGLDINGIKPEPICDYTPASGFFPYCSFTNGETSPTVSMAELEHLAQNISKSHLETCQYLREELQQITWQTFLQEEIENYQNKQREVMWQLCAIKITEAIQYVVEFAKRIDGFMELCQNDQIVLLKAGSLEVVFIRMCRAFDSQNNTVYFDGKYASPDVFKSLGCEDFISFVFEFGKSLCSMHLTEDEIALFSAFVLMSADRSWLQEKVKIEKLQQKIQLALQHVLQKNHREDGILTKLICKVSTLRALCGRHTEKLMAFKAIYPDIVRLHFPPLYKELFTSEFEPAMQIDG
pKi: −log10 of the molar value.
READOUT TYPE: pKi

pKi of COc1ccc(C(=O)N(CC(C)(C)C)c2cccc(C)n2)c(N2CCC(c3cc4ccc([C@@H](CC(=O)O)C5CC5)cc4o3)CC2)c1 [compound 1] , assay on hRORalpha (Homo sapiens, UniProt P35398), is < 4.70

====

- METHOD DESCRIPTION: Dog hepatocyte clearance
- Assay type: in vitro ADME
- RECORDED CONDITIONS: hepatocytes, with ABT (concentration not stated), read-out: Dog Hepatocyte Clearance ABT % Recovery
READOUT TYPE: recovery (%)
Give the value, in units of %, as a plain number.

// recovery lookup, molecule = COc1ccc(C(=O)N(CC(C)(C)C)c2cccc(C)n2)c(N2CCC(c3cc4ccc([C@@H](CC(=O)O)C5CC5)cc4o3)CC2)c1 [compound 1] , result: 92.8

====

- SYSTEM NAME: GPR40 L112A (Homo sapiens, UniProt O14842, L112A)
- METHOD DESCRIPTION: cAMP accumulation assay, L112A mutant
pEC50: −log10 of the molar value.
READOUT TYPE: pEC50

The measured pEC50 associated with "COc1ccc(C(=O)N(CC(C)(C)C)c2cccc(C)n2)c(N2CCC(c3cc4ccc([C@@H](CC(=O)O)C5CC5)cc4o3)CC2)c1" reads < 4.52

====

- SYSTEM NAME: human GPR40 (A2 site) (Homo sapiens)
- Construct: full length recombinant human GPR40 (GPR40) cDNA; expressed in transfected cells; host or cells: HEK 293, stably transfected; crude cell surface membranes
- Sequence (O14842 whole entry): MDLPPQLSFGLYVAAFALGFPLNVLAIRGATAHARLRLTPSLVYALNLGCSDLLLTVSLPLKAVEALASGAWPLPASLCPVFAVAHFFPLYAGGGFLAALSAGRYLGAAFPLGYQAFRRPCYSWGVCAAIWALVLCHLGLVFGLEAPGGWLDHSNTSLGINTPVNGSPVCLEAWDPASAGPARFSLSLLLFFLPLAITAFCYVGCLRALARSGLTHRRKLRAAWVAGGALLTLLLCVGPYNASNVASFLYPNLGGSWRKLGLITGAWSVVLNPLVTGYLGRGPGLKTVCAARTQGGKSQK
- METHOD DESCRIPTION: A2 site radioligand binding with [3H]-AM-1638
- RECORDED CONDITIONS: Supplementary Table 1; read-out: Human GPR40 Binding to A2 Ki
READOUT TYPE: pKi
pKi (log units): -log10 of the concentration in mol/L.

# compound "COc1ccc(C(=O)N(CC(C)(C)C)c2cccc(C)n2)c(N2CCC(c3cc4ccc([C@@H](CC(=O)O)C5CC5)cc4o3)CC2)c1" ; its pKi = 9.05

Please fill in: pKi reported for "COc1ccc(F)c(-c2ccc(COc3cccc([C@@H](CC(=O)O)C4CC4)c3)cc2C2=CCCC2(C)C)c1" = 8.85

====

- SYSTEM NAME: WT GPR40 (Homo sapiens)
- Sequence (O14842 whole entry): as above
- METHOD DESCRIPTION: cAMP accumulation assay (CRE/luc2P), wild type GPR40
- RECORDED CONDITIONS: cAMP accumulation EC50, WT, Fig. 6c-e, n = 3
READOUT TYPE: EC50
Report the figure along with its unit, number first.

The value of EC50 measured for the molecule "COc1ccc(C(=O)N(CC(C)(C)C)c2cccc(C)n2)c(N2CCC(c3cc4ccc([C@@H](CC(=O)O)C5CC5)cc4o3)CC2)c1" turned out to be 210 nM

====

Could you please report measured Ki for the items listed next?
- SYSTEM NAME: human PPARgama (Homo sapiens)
- Sequence (P37231 1-505): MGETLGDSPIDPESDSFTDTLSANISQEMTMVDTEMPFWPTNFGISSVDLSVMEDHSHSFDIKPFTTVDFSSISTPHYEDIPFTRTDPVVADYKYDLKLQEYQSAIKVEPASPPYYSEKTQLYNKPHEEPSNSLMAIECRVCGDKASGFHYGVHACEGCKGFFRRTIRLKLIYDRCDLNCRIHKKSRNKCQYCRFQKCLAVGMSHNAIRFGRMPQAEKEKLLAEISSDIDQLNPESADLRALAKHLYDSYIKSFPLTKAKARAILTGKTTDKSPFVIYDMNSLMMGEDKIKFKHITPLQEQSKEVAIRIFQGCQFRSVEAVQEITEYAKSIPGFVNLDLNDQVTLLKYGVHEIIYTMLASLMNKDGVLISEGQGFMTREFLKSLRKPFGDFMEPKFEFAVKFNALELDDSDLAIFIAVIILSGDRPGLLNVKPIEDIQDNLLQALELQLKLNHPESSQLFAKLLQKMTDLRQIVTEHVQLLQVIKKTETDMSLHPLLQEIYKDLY

# Ki measured on human PPARgama (Homo sapiens) for item COc1ccc(F)c(-c2ccc(COc3cccc([C@@H](CC(=O)O)C4CC4)c3)cc2C2=CCCC2(C)C)c1 [AM-1638] = > 10 µM

So the reported Ki for COc1ccc(C(=O)N(CC(C)(C)C)c2cccc(C)n2)c(N2CCC(c3cc4ccc([C@@H](CC(=O)O)C5CC5)cc4o3)CC2)c1 [compound 1] , on human PPARgama (Homo sapiens), turned out to be > 10 µM

Lab entry: human PPARgama (Homo sapiens) assay, compound Cc1cc(OCCCS(C)(=O)=O)cc(C)c1-c1cccc(COc2ccc3c(c2)OC[C@H]3CC(=O)O)c1 [TAK-875] , Ki = > 10 µM

Hey, human PPARgama (Homo sapiens) data for CC#C[C@@H](CC(=O)O)c1ccc(OCc2ccc(CN3CCC4(C=Cc5ccccc54)CC3)cc2)cc1 [LY2881835] : Ki came out at > 10 µM
